test: RPL19A-GFP modulators, yeast TOR pathway, confirmation, cell-based, S. cerevisiae, flow cytometry, cherry picks, mother/daughter gates (AID 2270); details: S. cerevisiae RPL19A-GFP strain, 3 h, measured here: daughter cell gate, at 10 µM, stronger effect = lower value, 100 = same GFP as DMSO wells
// reported GFP response vs DMSO per item
Write the number in % without appending the unit.

compound	measurement_name	test_value
CCn1c(=O)c(C(=O)NCc2ccc(OC)cc2)c(O)c2ccccc21	GFP response vs DMSO	99.5

Below: the item to evaluate.
Dear colleague, I am looking for the recorded GFP response vs DMSO of the following compound: CN(C(=O)c1cccnc1)c1nc(-c2ccccc2)cs1
97.3

---

The entries below are paired with their reported GFP response vs DMSO.
assay: modulators of MEP2-GFP levels in yeast, confirmation, S. cerevisiae, flow cytometry GFP, cherry picks (AID 2272);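 also: ratio of well signal to plate DMSO mean so 100% equals DMSO level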; settings: S. cerevisiae MEP2-GFP strain, 3 h, at 10 µM, stronger effect = higher value
Report only the number, with the unit % understood.

Examples with answers:
compound	test_value
CN1CCc2c(sc3c2C(=O)NC(c2ccc4c(c2)OCO4)N3)C1 (stereo unspecified)	106
O=C1C=CC(=O)N1c1ccc(N2CCCCC2)cc1	87.8
CC1CCc2c(C(=O)NCc3cccnc3)csc2C1 (stereo unspecified)	94.7
COc1ccc(C2N(c3ccc(Cl)cc3)N=C(C(C)=O)N(C)N2C(C)=O)cc1 (stereo unspecified)	101
COc1cccc(/C=N\NC(=O)c2cc(OCC(F)(F)F)ccc2OCC(F)(F)F)c1	100

State the recorded GFP response vs DMSO for this entry: CCCn1c(=O)c(C(=O)Nc2ccccc2C(=O)OC)c(O)c2ccccc21
97.8

Looking for the measured GFP response vs DMSO of Cc1ccc(S(=O)(=O)N(Cc2ccc(F)cc2)Cc2ccco2)cc1 , can you help?
103

Could you tell me which GFP response vs DMSO is on file for CCc1noc(C)c1C(=O)Nc1nc2ccc(OC)cc2s1 ?
99.3

Fill in the blank: the reported GFP response vs DMSO of Clc1cccc(Cn2ncc3ccccc32)c1 is ____.
92

Could you share which GFP response vs DMSO value was measured for Cc1cccc(NC(=O)c2nc(S(=O)(=O)Cc3ccccc3)ncc2Cl)c1 ?
108

GET /values?readout=GFP response vs DMSO&item= CN1c2ccsc2/C(=N/Nc2ccc(F)cc2)CS1(=O)=O
114

---

test: RPL19A-GFP modulators, yeast TOR pathway, confirmation, cell-based, S. cerevisiae, flow cytometry, cherry picks, mother/daughter gates (AID 2270); conditions: S. cerevisiae RPL19A-GFP strain, 3 h, measured here: daughter cell gate, at 10 µM, stronger effect = lower value, 100 = same GFP as DMSO wells
Below is a list of entries, each paired with its recorded GFP response vs DMSO value.
Please reply with the bare figure in % and do not write the unit itself.

compound	units_of_measure	GFP response vs DMSO
COc1ccc(CN2CCSc3sccc3C2=O)cc1	%	90.7
CCS(=O)(=O)N1N=C(c2ccccc2)CC1c1ccc2nccnc2c1 (stereo unspecified)	%	98.9
CCOC(=O)c1ccc(NC(=O)c2ccc3c(c2)C(=O)N(Cc2cccnc2)C3=O)cc1	%	99.6
Oc1c(CN2CCN(c3ccc(F)cc3)CC2)cc(Cl)c2cccnc12	%	102
Cc1nn2c(N3CCOCC3)c3c(nc2c1-c1ccccc1)CCCC3	%	102

Could you tell me which GFP response vs DMSO is on file for COc1ccc(C2N(c3ccc(Cl)cc3)N=C(C(C)=O)N(C)N2C(C)=O)cc1 (stereo unspecified) ?
99.6

Can you share its GFP response vs DMSO? I mean this compound: Cc1[nH]c(-c2ccccn2)nc(=S)c1Cl
98.1

Report GFP response vs DMSO for CCOC(=O)N/C(N)=N/c1nc2ccccc2s1 please.
82.1

# lookup: GFP response vs DMSO of CC(C)NC(=O)c1ccccc1-c1nc(-c2ccccc2Cl)no1
96.7

Value lookup for GFP response vs DMSO; key = C[n+]1ccc(/C=C/c2c[nH]c3ccc(F)cc23)cc1
99.5

Param item = Cc1ccc(C)c(-c2nnc(NC(=O)c3ccc([N+](=O)[O-])o3)o2)c1 ; retrieve measured GFP response vs DMSO.
95.7

---

experiment: RPL19A-GFP modulators, yeast TOR pathway, confirmation, cell-based, S. cerevisiae, flow cytometry, cherry picks, mother/daughter gates (AID 2270); conditions: S. cerevisiae RPL19A-GFP strain, 3 h, measured here: mother cell gate, at 10 µM, stronger effect = lower value, 100 = same GFP as DMSO wells
measurement_name: GFP response vs DMSO (%)
Give a bare numeral; the unit % is implied.

compound	measurement_name	test_value
CCn1cc([N+](=O)[O-])c(C(=O)Nc2nc(-c3ccc(C)c(C)c3)c(C)s2)n1	GFP response vs DMSO	99.2
CCN(CC)CCNC(=O)Cn1c(-c2ccccn2)nc2ccccc21	GFP response vs DMSO	99.6
CCC(C(=O)O)n1nc(-c2ccccc2)c2cc(Cl)ccc21 (stereo unspecified)	GFP response vs DMSO	98.2
Cc1ccccc1OCC(=O)NNC(=S)NC(=O)c1ccco1	GFP response vs DMSO	118
COc1ccc(-c2csc(NC(=O)c3ccco3)n2)cc1	GFP response vs DMSO	97.8
NC1=NC(=O)C(CC(=O)c2ccc(Cl)cc2)S1 (stereo unspecified)	GFP response vs DMSO	99.8

# query: GFP response vs DMSO of entry CN(C)c1ccc(/C=C/c2ccc3ccccc3[n+]2C)cc1
88.7

// GFP response vs DMSO lookup, key: OCC[n+]1ccc(/C=C/c2c[nH]c3ccccc23)cc1
108

Can you share its GFP response vs DMSO? I mean this compound: Cc1ccccc1NC(=O)COC(=O)c1cc(=O)c2ccccc2o1
104

Quick one: GFP response vs DMSO of COc1cccc(-c2nnc(NC(=O)c3ccc(S(=O)(=O)N4CCOCC4)cc3)o2)c1 ?
96.5

I'd like to know its GFP response vs DMSO. The compound in question is COC(=O)Cn1c(C)c(/C=C/c2cc[n+](C)cc2)c2ccccc21
101

---

GFP response vs DMSO overview
assay: RPL19A-GFP modulators, yeast TOR pathway, confirmation, cell-based, S. cerevisiae, flow cytometry, cherry picks, mother/daughter gates (AID 2270); settings: S. cerevisiae RPL19A-GFP strain, 3 h, measured here: daughter cell gate, at 10 µM, stronger effect = lower value, 100 = same GFP as DMSO wells
Your answer should be a plain number; it is taken to be in %.

Some molecules with known GFP response vs DMSO results, for comparison:
molecule	units_of_measure	GFP response vs DMSO
O=C(COC(=O)C1CCN(c2ccc(C(F)(F)F)cn2)CC1)Nc1cccc(F)c1	%	94.6
N=c1ccn(CC(=O)c2ccc(-c3ccccc3)cc2)cc1	%	99.3
Cc1ccc(NC(=O)c2ccccc2O)cc1	%	102
CCOc1ccc(S(=O)(=O)N2CCc3ccccc3C2)cc1	%	97.8
CS(=O)(=O)N1CCc2cc(C(=O)Nc3ccc(COCC(F)(F)F)cc3)ccc21	%	104

From here, focus on the item given below.
Bench note: what GFP response vs DMSO did CN(C)c1ccc(N=Cc2nc(-c3ccccc3)oc2OC(=O)c2ccccc2)cc1 show?
100

---

# key: entry, value: GFP response, % of DMSO
assay: modulators of CIT2-GFP expression in yeast, confirmation, S. cerevisiae, GFP fusion, cherry picks, mother/daughter gates (AID 2274); settings: S. cerevisiae CIT2-GFP strain, flow cytometry, 3 h; measured here: mother cell gate; at 10 µM; stronger effect = higher value
Quick note: give the figure in %, leave out the unit.

compound	GFP response, % of DMSO, %
O=C(/C=C/c1ccccn1)c1cc(Br)ccc1O	77.3

Look up GFP response, % of DMSO for this compound: CCN(CC(O)Cn1c2ccccc2c2ccccc21)S(=O)(=O)c1ccc(F)cc1 (stereo not given)
94.5

Query: GFP response, % of DMSO; subject: Cc1ccc(/C=C2\SC(=S)N(CC3CCCO3)C2=O)o1 (stereo not given)
98.2

Any idea what its GFP response, % of DMSO is? The compound is COc1cccc(-c2nnc(NC(=O)c3ccc(S(=O)(=O)N(CC(C)C)CC(C)C)cc3)o2)c1
101

Fill in: GFP response, % of DMSO of CCCc1[nH]nc2c1C(c1cccc(OC)c1)C(C#N)=C(N)O2 (stereo not given) is ___
103

Look up GFP response, % of DMSO for this compound: Cc1cccc(CS(=O)(=O)c2ncc(Cl)c(C(=O)NCc3ccccc3)n2)c1
95.5

---

test: inhibitors of CD8+ T cell-vesicle binding, pilot screen, LFA-1/ICAM-1 modulator project, MLPCN validation set, flow cytometry (AID 2523); details: 2C mouse CD8+ T cells, at 7 µM, stronger effect = lower value;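 also: mean PE anti-B7-1 fluorescence of CD8+ cells relative to row control; 100% = QL9-loaded vesicles with DMSO vehicle in the same plate row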
Quick rule for you: vesicle binding response under 200% gets y, anything else gets n.

compound	label_value
COc1cc([C@@H]2c3cc4c(cc3[C@H](O)[C@H]3COC(=O)[C@H]23)OCO4)cc(OC)c1OC	y

Lab note: vesicle binding response threshold 200%. Does this compound come in strictly under it? COC1=CC(=O)CC(C)C12Oc1c(Cl)c(OC)cc(OC)c1C2=O (stereo not given)
y

State whether 200% exceeds vesicle binding response recorded for Cc1nc2sccn2c(=O)c1CCN1CCC(=C(c2ccc(F)cc2)c2ccc(F)cc2)CC1 .
n

Is vesicle binding response of CCNC(=O)c1sc2cc(C)ccc2c1Cl strictly below 200%?
n

Is it true that vesicle binding response reported for COc1cccc(OC)c1C(=O)Nc1nc2ccc([N+](=O)[O-])cc2s1 is less than 200%?
y
